These measurements were taken from patent US20150376286A1.

Molecular target: human adrenomedullin receptor 1 (hCRLR + hRAMP2) (human, UniProt O60895 43-175)
Sequence (chain, as listed by the source, chain 1 of 2): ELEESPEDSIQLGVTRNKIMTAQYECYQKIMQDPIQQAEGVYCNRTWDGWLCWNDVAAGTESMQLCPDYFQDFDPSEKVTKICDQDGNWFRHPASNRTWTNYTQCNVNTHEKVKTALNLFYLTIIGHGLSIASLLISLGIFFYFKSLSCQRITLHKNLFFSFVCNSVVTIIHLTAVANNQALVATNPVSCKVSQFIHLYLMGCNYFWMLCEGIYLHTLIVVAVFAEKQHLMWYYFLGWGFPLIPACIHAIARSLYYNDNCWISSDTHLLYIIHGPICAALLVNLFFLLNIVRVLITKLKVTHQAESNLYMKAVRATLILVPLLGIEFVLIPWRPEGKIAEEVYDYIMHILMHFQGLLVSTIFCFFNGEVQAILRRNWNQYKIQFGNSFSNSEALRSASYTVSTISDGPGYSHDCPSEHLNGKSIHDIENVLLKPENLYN
Sequence (O60895 43-175, chain 2 of 2): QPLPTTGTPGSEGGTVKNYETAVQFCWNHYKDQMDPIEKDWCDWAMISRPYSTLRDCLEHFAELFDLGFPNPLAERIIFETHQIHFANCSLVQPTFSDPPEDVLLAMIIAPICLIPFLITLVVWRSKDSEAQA
Experiment: cell-based or functional assay
Item-by-item account of cAMP assay IC50

A selection of reference data follows.
1E11 (antibody, human IgG2, lambda, V domains shown, also called 01E11; 01E11.2) VH: QVQLVESGGGVVQPGRSLRLSCAASGFTFSSFGMHWVRQAPGKGLEWVAVISFDGSIKYSVDSVKGRFTISRDNSKNTLFLQMNSLRAEDTAVYYCARDRLNYYDSSGYYHYKYYGMAVWGQGTTVTVSS VL: QSVLTQPPSVSEAPGQKVTISCSGSSSNIGNNYVSWYQQLPGTAPKLLIYDNNKRPSGIPDRFSGSKSGTSATLGITGLQTGDEADYYCGTWDSRLSAVVFGGGTKLTVLG    > 1000 nM
9D4 (antibody, human IgG2, lambda, V domains shown, also called 09D4; 09D4.2) VH: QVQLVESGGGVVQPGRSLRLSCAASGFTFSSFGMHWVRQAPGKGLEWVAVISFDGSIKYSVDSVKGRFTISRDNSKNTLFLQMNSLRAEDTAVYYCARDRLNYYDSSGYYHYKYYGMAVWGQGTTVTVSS VL: QSVLTQPPSVSAAPGQKVTISCSGSSSNIGNNYVSWYQQFPGTAPKLLIYDNNKRPSGIPDRFSGSKSGTSATLGITGLQTGDEADYYCGTWDSRLSAVVFGGGTKLTVLG    > 1000 nM

Give recorded cAMP assay IC50. 32H7 (antibody, human IgG2, kappa, V domains shown, also called 32H7.1G) VH: QVQLVESGGGVVQPGRSLRLSCAASGFTFSSYGMHWVRQAPGKGLEWVAVIWYDGSNKYYADSVKGRFIISRDKSKNTLYLQMNSLRAEDTAVYYCARAGGIAAAGLYYYYGMDVWGQGTTVTVSS VL: EIVLTQSPGTLSLSPGERATLSCRASQSVSSGYLTWYQQKPGQAPRLLIYGASSRATGIPDRFSGSGSGTDFTLTISRLEPEDFAVYYCQQYGNSLCRFGQGTKLEIKR > 1000 nM
